Assay: Dynamic SPECT imaging and biological distribution in dogs after intravenous injection
Assay type: in vivo
Conditions: 2 Minutes
endpoint: Target/Non-Target Uptake Ratio Heart/Lungs
I only need the number, thanks.

molecule | quantitative_readout
[C-]#[N+]CC(C)(C)OC.[C-]#[N+]CC(C)(C)OC.[C-]#[N+]CC(C)(C)OC.[C-]#[N+]CC(C)(C)OC.[C-]#[N+]CC(C)(C)OC.[C-]#[N+]CC(C)(C)OC.[Tc] [[^99mTc(MIBI)6]^+, reference compound] | 2.35

# next molecule below
Request: Let me know recorded Target/Non-Target Uptake Ratio Heart/Lungs for COC(C)(C)CN=[C]=[99Tc+](=[C]=O)(=[C]=O)(=[C]=O)(=[C]=NCC(C)(C)OC)=[C]=NCC(C)(C)OC [[^99mTc(CO)3(MIBI)3]^+] , thanks.
Result: 2.51

* * *

Reported Target/Non-Target Uptake Ratio Heart/Lungs values follow for various molecules
Test: Dynamic SPECT imaging and biological distribution in dogs after intravenous injection
Format: in vivo
Conditions: 60 Minutes
The answer should be a number; do not append a unit.

Request: Supply Target/Non-Target Uptake Ratio Heart/Lungs value. Item: COC(C)(C)CN=[C]=[99Tc+](=[C]=O)(=[C]=O)(=[C]=O)(=[C]=NCC(C)(C)OC)=[C]=NCC(C)(C)OC [[^99mTc(CO)3(MIBI)3]^+]
Result: 3.05

Request: Look up and report measured Target/Non-Target Uptake Ratio Heart/Lungs for this entry: [C-]#[N+]CC(C)(C)OC.[C-]#[N+]CC(C)(C)OC.[C-]#[N+]CC(C)(C)OC.[C-]#[N+]CC(C)(C)OC.[C-]#[N+]CC(C)(C)OC.[C-]#[N+]CC(C)(C)OC.[Tc] [[^99mTc(MIBI)6]^+, reference compound]
Result: 2.84

* * *

Assay: Dynamic SPECT imaging and biological distribution in dogs after intravenous injection
Format: in vivo
Details: 60 Minutes
Below, each entry is listed with its recorded Target/Non-Target Uptake Ratio Heart/Kidneys.
When you answer, write just the number.

molecule | quantitative_readout
[C-]#[N+]CC(C)(C)OC.[C-]#[N+]CC(C)(C)OC.[C-]#[N+]CC(C)(C)OC.[C-]#[N+]CC(C)(C)OC.[C-]#[N+]CC(C)(C)OC.[C-]#[N+]CC(C)(C)OC.[Tc] [[^99mTc(MIBI)6]^+, reference compound] | 0.43

Switching to the query record.
Request: Find the measured Target/Non-Target Uptake Ratio Heart/Kidneys of COC(C)(C)CN=[C]=[99Tc+](=[C]=O)(=[C]=O)(=[C]=O)(=[C]=NCC(C)(C)OC)=[C]=NCC(C)(C)OC [[^99mTc(CO)3(MIBI)3]^+] and report it.
Result: 0.6

* * *

Assay: Dynamic SPECT imaging and biological distribution in dogs after intravenous injection
Type: in vivo
Details: 120 Minutes
Entries and their measured Target/Non-Target Uptake Ratio Heart/Liver follow.
// keep it numeric: no unit symbol after the value

Request: // fetch Target/Non-Target Uptake Ratio Heart/Liver given entry COC(C)(C)CN=[C]=[99Tc+](=[C]=O)(=[C]=O)(=[C]=O)(=[C]=NCC(C)(C)OC)=[C]=NCC(C)(C)OC [[^99mTc(CO)3(MIBI)3]^+]
Result: 1.37

Request: Respond only with Target/Non-Target Uptake Ratio Heart/Liver recorded for [C-]#[N+]CC(C)(C)OC.[C-]#[N+]CC(C)(C)OC.[C-]#[N+]CC(C)(C)OC.[C-]#[N+]CC(C)(C)OC.[C-]#[N+]CC(C)(C)OC.[C-]#[N+]CC(C)(C)OC.[Tc] [[^99mTc(MIBI)6]^+, reference compound]
Result: 0.8

* * *

Assay: Dynamic SPECT imaging and biological distribution in dogs after intravenous injection
Format: in vivo
Conditions: 40 Minutes
# Target/Non-Target Uptake Ratio Heart/Lungs per record follows

molecule | result
[C-]#[N+]CC(C)(C)OC.[C-]#[N+]CC(C)(C)OC.[C-]#[N+]CC(C)(C)OC.[C-]#[N+]CC(C)(C)OC.[C-]#[N+]CC(C)(C)OC.[C-]#[N+]CC(C)(C)OC.[Tc] [[^99mTc(MIBI)6]^+, reference compound] | 2.7

Read the next record carefully.
Request: Report measured Target/Non-Target Uptake Ratio Heart/Lungs; entry is COC(C)(C)CN=[C]=[99Tc+](=[C]=O)(=[C]=O)(=[C]=O)(=[C]=NCC(C)(C)OC)=[C]=NCC(C)(C)OC [[^99mTc(CO)3(MIBI)3]^+]
Result: 3

* * *

Test: Dynamic SPECT imaging and biological distribution in dogs after intravenous injection
Format: in vivo
Conditions: 5 Minutes
endpoint: Target/Non-Target Uptake Ratio Heart/Kidneys

compound | result
COC(C)(C)CN=[C]=[99Tc+](=[C]=O)(=[C]=O)(=[C]=O)(=[C]=NCC(C)(C)OC)=[C]=NCC(C)(C)OC [[^99mTc(CO)3(MIBI)3]^+] | 0.53

# context switch: different compound, same Target/Non-Target Uptake Ratio Heart/Kidneys
Request: Answer with the recorded Target/Non-Target Uptake Ratio Heart/Kidneys for the compound listed here: [C-]#[N+]CC(C)(C)OC.[C-]#[N+]CC(C)(C)OC.[C-]#[N+]CC(C)(C)OC.[C-]#[N+]CC(C)(C)OC.[C-]#[N+]CC(C)(C)OC.[C-]#[N+]CC(C)(C)OC.[Tc] [[^99mTc(MIBI)6]^+, reference compound]
Result: 0.48

* * *

Assay: Dynamic SPECT imaging and biological distribution in dogs after intravenous injection
Format: in vivo
Settings: 90 Minutes
endpoint: Target/Non-Target Uptake Ratio Heart/Lungs
A bare number is all that is needed in reply.

molecule | quantitative_readout
COC(C)(C)CN=[C]=[99Tc+](=[C]=O)(=[C]=O)(=[C]=O)(=[C]=NCC(C)(C)OC)=[C]=NCC(C)(C)OC [[^99mTc(CO)3(MIBI)3]^+] | 3.1

Request: Quickly give me recorded Target/Non-Target Uptake Ratio Heart/Lungs for [C-]#[N+]CC(C)(C)OC.[C-]#[N+]CC(C)(C)OC.[C-]#[N+]CC(C)(C)OC.[C-]#[N+]CC(C)(C)OC.[C-]#[N+]CC(C)(C)OC.[C-]#[N+]CC(C)(C)OC.[Tc] [[^99mTc(MIBI)6]^+, reference compound]
Result: 2.84

* * *

Documented Target/Non-Target Uptake Ratio Heart/Kidneys across a set of molecules
Test: Dynamic SPECT imaging and biological distribution in dogs after intravenous injection
Type: in vivo
Details: 90 Minutes

molecule | result
[C-]#[N+]CC(C)(C)OC.[C-]#[N+]CC(C)(C)OC.[C-]#[N+]CC(C)(C)OC.[C-]#[N+]CC(C)(C)OC.[C-]#[N+]CC(C)(C)OC.[C-]#[N+]CC(C)(C)OC.[Tc] [[^99mTc(MIBI)6]^+, reference compound] | 0.46

Next, consider the following molecule.
Request: Assign Target/Non-Target Uptake Ratio Heart/Kidneys to the following record: COC(C)(C)CN=[C]=[99Tc+](=[C]=O)(=[C]=O)(=[C]=O)(=[C]=NCC(C)(C)OC)=[C]=NCC(C)(C)OC [[^99mTc(CO)3(MIBI)3]^+]
Result: 0.6

* * *

Experiment: Dynamic SPECT imaging and biological distribution in dogs after intravenous injection
Type: in vivo
Details: 20 Minutes
endpoint: Target/Non-Target Uptake Ratio Heart/Lungs

compound | result
[C-]#[N+]CC(C)(C)OC.[C-]#[N+]CC(C)(C)OC.[C-]#[N+]CC(C)(C)OC.[C-]#[N+]CC(C)(C)OC.[C-]#[N+]CC(C)(C)OC.[C-]#[N+]CC(C)(C)OC.[Tc] [[^99mTc(MIBI)6]^+, reference compound] | 2.8

Then this compound:
Request: Specify measured Target/Non-Target Uptake Ratio Heart/Lungs for COC(C)(C)CN=[C]=[99Tc+](=[C]=O)(=[C]=O)(=[C]=O)(=[C]=NCC(C)(C)OC)=[C]=NCC(C)(C)OC [[^99mTc(CO)3(MIBI)3]^+] .
Result: 2.8

* * *

Assay: Dynamic SPECT imaging and biological distribution in dogs after intravenous injection
Type: in vivo
Conditions: 40 Minutes
# Lookup of reported Target/Non-Target Uptake Ratio Heart/Kidneys keyed by entry
Reply with just the number.

compound | quantitative_readout
COC(C)(C)CN=[C]=[99Tc+](=[C]=O)(=[C]=O)(=[C]=O)(=[C]=NCC(C)(C)OC)=[C]=NCC(C)(C)OC [[^99mTc(CO)3(MIBI)3]^+] | 0.58

Next item in the queue.
Request: For the compound [C-]#[N+]CC(C)(C)OC.[C-]#[N+]CC(C)(C)OC.[C-]#[N+]CC(C)(C)OC.[C-]#[N+]CC(C)(C)OC.[C-]#[N+]CC(C)(C)OC.[C-]#[N+]CC(C)(C)OC.[Tc] [[^99mTc(MIBI)6]^+, reference compound] , give its reported Target/Non-Target Uptake Ratio Heart/Kidneys.
Result: 0.43

* * *

Measured Target/Non-Target Uptake Ratio Heart/Kidneys of individual entries
Test: Dynamic SPECT imaging and biological distribution in dogs after intravenous injection
Assay type: in vivo
Conditions: 10 Minutes
Please give only the number in your answer, with no unit.

compound | quantitative_readout
[C-]#[N+]CC(C)(C)OC.[C-]#[N+]CC(C)(C)OC.[C-]#[N+]CC(C)(C)OC.[C-]#[N+]CC(C)(C)OC.[C-]#[N+]CC(C)(C)OC.[C-]#[N+]CC(C)(C)OC.[Tc] [[^99mTc(MIBI)6]^+, reference compound] | 0.59

Next item in the queue.
Request: For the compound COC(C)(C)CN=[C]=[99Tc+](=[C]=O)(=[C]=O)(=[C]=O)(=[C]=NCC(C)(C)OC)=[C]=NCC(C)(C)OC [[^99mTc(CO)3(MIBI)3]^+] , give its reported Target/Non-Target Uptake Ratio Heart/Kidneys.
Result: 0.53

Ref: patent US20030086873A1
